target: Phosphatidylinositol 4,5-bisphosphate 3-kinase catalytic subunit gamma isoform (Homo sapiens); test: Inhibition of wild type PI3K-gamma (unknown origin) assessed as decrease in ATP consumption at 10 uM using phosphotidylinositol bisphosphate and ATP measured after 60 mins by Kinase-Glo reagent based luminescence assay
READOUT: inhibition (%)

Nc1cccc(-c2c(OCc3ccccn3)ccc3c(=O)nc(N4CCOCC4)oc23)c1 : 6.4
O=c1nc(N2CCOCC2)oc2c(-c3cccc4c3oc3ccccc34)c(OCc3ccccc3)ccc12 : -4.1
O=c1nc(N2CCOCC2)oc2c(-c3ccccc3)c(OCc3ccncc3)ccc12 : 8.2
O=c1nc(N2CCOCC2)oc2c(-c3cccs3)c(OCc3ccccn3)ccc12 : 0.1
Nc1cccc(-c2c(OCc3cccnc3)ccc3c(=O)nc(N4CCOCC4)oc23)c1 : -6.9
O=c1nc(N2CCOCC2)oc2c(-c3ccccc3)c(OCc3cccnc3)ccc12 : 25.7
O=c1nc(N2CCOCC2)oc2c(-c3cccs3)c(OCc3cccnc3)ccc12 : 1.7
O=c1nc(N2CCOCC2)oc2c(-c3cccs3)c(OCc3ccncc3)ccc12 : -1.5

(A) COc1ccc(-c2c(OCc3cccnc3)ccc3c(=O)nc(N4CCOCC4)oc23)cc1
(B) COc1ccc(-c2c(OCc3ccccc3)ccc3c(=O)nc(N4CCOCC4)oc23)cc1
(C) O=c1nc(N2CCOCC2)oc2c(-c3cc4ccccc4s3)c(OCc3ccncc3)ccc12
(D) CN1CCN(CCOc2ccc3c(=O)nc(N4CCOCC4)oc3c2-c2ccccc2)CC1
input: Sort ascending by inhibition. Thanks in advance for listing the labels in the requested order.
output: A, B, C, D
(A: -2.2%, B: -0.5%, C: 0.2%, D: 4.3%)

(I) O=c1nc(N2CCOCC2)oc2c(-c3cccnc3)c(OCc3ccccc3)ccc12
(II) COc1ccc(-c2c(OCCBr)ccc3c(=O)nc(N4CCOCC4)oc23)cc1
(III) O=c1nc(N2CCOCC2)oc2c(-c3ccccc3)c(OCc3ccccc3)ccc12
(IV) O=c1nc(N2CCOCC2)oc2c(-c3cccs3)c(OCc3ccccc3)ccc12
input: Sort ascending by inhibition. Thanks in advance for listing the labels in the requested order.
output: II, IV, I, III
(II: -8.6%, IV: -3.5%, I: -2.3%, III: 5.4%)

(I) O=c1nc(N2CCOCC2)oc2c(-c3ccccc3)c(OCCBr)ccc12
(II) O=c1nc(N2CCOCC2)oc2c(-c3ccc(Cl)cc3)c(OCc3ccccc3)ccc12
(III) O=c1nc(N2CCOCC2)oc2c(-c3ccsc3)c(OCc3cccnc3)ccc12
(IV) CN1CCN(CCOc2ccc3c(=O)nc(N4CCOCC4)oc3c2-c2ccc(Cl)cc2)CC1
input: Sort ascending by inhibition. Thanks in advance for listing the labels in the requested order.
output: I, IV, III, II

(1) Nc1cccc(-c2c(OCc3ccncc3)ccc3c(=O)nc(N4CCOCC4)oc23)c1
(2) O=c1nc(N2CCOCC2)oc2c(-c3ccc(Cl)cc3)c(OCc3cccnc3)ccc12
(3) O=c1nc(N2CCOCC2)oc2c(-c3cc4ccccc4s3)c(OCc3cccnc3)ccc12
input: Ordering criterion: inhibition; begin with the maximum. Thanks in advance for listing the labels in the requested order.
output: 2, 1, 3

(P) O=c1nc(N2CCOCC2)oc2c(-c3ccccc3)c(OCc3ccccn3)ccc12
(Q) O=c1nc(N2CCOCC2)oc2c(-c3ccc(Cl)cc3)c(OCc3ccncc3)ccc12
input: Which of the two gives a bigger number for inhibition: P or Q ? Answer by quoting the chosen item's label.
output: P

====

target: Phosphatidylinositol 4,5-bisphosphate 3-kinase catalytic subunit delta isoform (Homo sapiens) (UniProt O00329); experiment: Inhibition of wild type PI3K-delta (unknown origin) assessed as decrease in ATP consumption at 10 uM using phosphotidylinositol bisphosphate and ATP measured after 60 mins by Kinase-Glo reagent based luminescence assay
READOUT: inhibition (%)

Take a look at these entries with their results.
O=c1nc(N2CCOCC2)oc2c(-c3ccccc3)c(OCc3ccccc3)ccc12 : 58.7
O=c1nc(N2CCOCC2)oc2c(-c3ccc(Cl)cc3)c(OCCBr)ccc12 : 53.6

(a) Nc1cccc(-c2c(OCc3ccncc3)ccc3c(=O)nc(N4CCOCC4)oc23)c1
(b) O=c1nc(N2CCOCC2)oc2c(-c3ccc(Cl)cc3)c(OCc3cccnc3)ccc12
(c) O=c1nc(N2CCOCC2)oc2c(-c3cccs3)c(OCc3ccncc3)ccc12
(d) COc1ccc(-c2c(OCc3ccncc3)ccc3c(=O)nc(N4CCOCC4)oc23)cc1
(e) O=c1nc(N2CCOCC2)oc2c(-c3ccsc3)c(OCc3cccnc3)ccc12
input: Ordering criterion: inhibition; begin with the maximum. Thanks in advance for listing the labels in the requested order.
output: d, b, c, e, a
(d: 96.3%, b: 64.9%, c: 24%, e: 16.6%, a: 9.7%)

(a) CN1CCN(CCOc2ccc3c(=O)nc(N4CCOCC4)oc3c2-c2ccccc2)CC1
(b) O=c1nc(N2CCOCC2)oc2c(-c3cc4ccccc4s3)c(OCc3ccccn3)ccc12
input: Which of the two gives a bigger number for inhibition: a or b ? Answer by quoting the chosen item's label.
output: a
(a: 53.4%, b: 24.6%)

====

target: DNA-dependent protein kinase catalytic subunit (Homo sapiens, UniProt P78527); test: Inhibition of human DNA-PK catalytic subunit at 10 uM using DNA and [EPPLSQEAFADLWKK] peptide substrate by HTRF assay
Sequence (P78527 whole entry): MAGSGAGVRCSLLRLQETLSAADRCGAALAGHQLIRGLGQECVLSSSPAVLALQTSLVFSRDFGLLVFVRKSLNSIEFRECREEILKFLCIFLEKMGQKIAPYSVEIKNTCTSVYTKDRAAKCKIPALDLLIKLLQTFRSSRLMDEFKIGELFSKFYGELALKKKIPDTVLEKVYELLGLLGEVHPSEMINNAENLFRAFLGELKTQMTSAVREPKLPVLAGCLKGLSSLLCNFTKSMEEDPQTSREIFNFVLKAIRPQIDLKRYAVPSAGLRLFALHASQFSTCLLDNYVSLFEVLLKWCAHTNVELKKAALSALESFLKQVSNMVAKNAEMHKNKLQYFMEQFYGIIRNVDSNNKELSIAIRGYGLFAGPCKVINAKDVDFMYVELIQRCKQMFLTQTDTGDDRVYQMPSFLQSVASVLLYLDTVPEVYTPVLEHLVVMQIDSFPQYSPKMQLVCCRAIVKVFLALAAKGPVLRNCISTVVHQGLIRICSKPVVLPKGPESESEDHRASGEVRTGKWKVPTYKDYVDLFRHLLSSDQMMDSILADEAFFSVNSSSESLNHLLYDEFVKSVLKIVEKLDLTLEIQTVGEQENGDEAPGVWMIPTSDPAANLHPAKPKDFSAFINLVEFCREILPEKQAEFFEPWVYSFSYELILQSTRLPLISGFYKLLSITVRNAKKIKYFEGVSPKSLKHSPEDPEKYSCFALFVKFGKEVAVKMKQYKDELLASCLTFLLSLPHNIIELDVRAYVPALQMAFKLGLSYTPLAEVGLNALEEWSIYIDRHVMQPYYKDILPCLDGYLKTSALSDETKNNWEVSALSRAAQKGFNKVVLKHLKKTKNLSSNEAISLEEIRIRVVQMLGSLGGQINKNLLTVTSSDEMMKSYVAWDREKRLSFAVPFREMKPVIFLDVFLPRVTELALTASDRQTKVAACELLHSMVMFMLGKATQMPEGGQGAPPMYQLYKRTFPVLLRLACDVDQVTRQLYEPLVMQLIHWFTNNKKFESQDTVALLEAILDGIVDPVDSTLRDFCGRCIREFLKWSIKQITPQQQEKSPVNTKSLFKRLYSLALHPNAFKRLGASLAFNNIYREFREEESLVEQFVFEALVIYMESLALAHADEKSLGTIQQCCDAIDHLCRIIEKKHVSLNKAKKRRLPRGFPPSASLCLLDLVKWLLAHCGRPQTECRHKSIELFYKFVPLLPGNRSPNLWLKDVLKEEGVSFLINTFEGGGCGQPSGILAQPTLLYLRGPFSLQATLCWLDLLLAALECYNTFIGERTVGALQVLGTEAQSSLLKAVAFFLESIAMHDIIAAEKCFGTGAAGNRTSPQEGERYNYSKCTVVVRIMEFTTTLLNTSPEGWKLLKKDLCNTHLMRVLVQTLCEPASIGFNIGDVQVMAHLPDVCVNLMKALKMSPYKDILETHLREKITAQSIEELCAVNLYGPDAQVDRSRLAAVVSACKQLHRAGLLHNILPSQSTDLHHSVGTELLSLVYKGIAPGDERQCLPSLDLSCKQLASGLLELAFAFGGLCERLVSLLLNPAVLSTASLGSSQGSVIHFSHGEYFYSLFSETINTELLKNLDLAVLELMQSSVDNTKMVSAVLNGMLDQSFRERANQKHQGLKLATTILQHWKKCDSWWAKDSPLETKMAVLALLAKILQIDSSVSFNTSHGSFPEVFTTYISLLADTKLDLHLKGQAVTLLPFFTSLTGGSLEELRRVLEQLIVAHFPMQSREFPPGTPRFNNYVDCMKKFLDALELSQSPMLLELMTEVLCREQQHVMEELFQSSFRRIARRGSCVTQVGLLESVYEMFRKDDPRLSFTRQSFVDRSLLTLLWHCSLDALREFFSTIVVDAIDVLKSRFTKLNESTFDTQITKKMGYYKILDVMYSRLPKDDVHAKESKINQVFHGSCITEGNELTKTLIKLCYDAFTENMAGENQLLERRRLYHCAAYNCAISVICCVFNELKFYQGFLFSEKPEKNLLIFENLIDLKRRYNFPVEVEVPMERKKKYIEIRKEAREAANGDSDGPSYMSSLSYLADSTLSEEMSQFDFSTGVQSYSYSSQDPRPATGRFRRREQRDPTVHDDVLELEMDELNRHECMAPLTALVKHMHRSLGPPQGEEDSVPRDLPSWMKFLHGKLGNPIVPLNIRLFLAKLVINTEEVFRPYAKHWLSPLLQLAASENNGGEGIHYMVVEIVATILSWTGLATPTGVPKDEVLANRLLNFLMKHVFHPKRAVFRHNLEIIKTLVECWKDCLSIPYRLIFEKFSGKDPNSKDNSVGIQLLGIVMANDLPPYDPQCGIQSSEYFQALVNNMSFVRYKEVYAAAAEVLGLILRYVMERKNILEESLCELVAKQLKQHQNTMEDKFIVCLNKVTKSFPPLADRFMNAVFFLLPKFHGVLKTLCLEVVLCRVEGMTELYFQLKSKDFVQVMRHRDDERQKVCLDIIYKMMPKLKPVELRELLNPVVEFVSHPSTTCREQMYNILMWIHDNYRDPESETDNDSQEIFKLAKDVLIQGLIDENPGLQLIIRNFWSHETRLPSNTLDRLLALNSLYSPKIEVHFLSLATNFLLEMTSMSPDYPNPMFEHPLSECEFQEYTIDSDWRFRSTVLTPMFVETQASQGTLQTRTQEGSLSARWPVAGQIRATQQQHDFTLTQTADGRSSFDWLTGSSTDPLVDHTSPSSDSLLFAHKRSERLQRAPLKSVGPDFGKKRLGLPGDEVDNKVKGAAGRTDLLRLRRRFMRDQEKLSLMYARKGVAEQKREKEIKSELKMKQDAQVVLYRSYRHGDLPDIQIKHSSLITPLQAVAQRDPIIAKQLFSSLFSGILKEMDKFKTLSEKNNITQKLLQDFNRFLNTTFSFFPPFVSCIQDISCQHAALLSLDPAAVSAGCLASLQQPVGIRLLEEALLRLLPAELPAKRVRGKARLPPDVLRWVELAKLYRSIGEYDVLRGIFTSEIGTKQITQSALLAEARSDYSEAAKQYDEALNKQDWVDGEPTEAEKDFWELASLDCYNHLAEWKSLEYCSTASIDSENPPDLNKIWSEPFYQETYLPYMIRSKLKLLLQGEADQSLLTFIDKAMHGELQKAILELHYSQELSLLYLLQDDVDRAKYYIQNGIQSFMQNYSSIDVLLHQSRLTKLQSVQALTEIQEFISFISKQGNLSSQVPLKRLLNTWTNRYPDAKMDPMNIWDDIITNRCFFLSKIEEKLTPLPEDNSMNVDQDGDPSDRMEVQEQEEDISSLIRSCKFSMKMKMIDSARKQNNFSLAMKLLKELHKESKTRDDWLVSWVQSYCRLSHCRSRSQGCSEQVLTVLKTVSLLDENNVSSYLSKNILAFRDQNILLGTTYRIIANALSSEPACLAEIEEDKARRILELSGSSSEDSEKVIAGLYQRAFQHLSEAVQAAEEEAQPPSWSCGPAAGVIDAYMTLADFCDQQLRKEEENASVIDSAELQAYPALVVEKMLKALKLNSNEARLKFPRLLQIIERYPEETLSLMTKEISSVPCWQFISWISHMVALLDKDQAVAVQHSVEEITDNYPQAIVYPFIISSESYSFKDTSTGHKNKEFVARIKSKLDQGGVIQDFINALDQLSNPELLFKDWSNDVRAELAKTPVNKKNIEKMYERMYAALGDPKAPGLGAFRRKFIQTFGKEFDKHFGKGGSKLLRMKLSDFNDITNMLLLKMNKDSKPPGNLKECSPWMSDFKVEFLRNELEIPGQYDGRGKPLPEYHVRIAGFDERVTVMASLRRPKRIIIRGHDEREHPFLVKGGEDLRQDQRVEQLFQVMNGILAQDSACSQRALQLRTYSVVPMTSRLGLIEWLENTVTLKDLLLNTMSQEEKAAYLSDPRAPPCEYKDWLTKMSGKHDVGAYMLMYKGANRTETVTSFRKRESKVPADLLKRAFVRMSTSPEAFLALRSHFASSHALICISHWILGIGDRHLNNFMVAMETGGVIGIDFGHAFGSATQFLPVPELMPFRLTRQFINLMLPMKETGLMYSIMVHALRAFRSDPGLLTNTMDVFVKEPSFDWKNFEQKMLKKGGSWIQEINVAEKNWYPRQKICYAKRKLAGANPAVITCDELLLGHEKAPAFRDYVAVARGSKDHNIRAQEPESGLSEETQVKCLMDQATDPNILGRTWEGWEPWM
READOUT: inhibition (%)

Take a look at these entries with their results.
O=c1nc(N2CCOCC2)oc2c(-c3cccs3)c(OCc3ccccn3)ccc12 : 40.1
COc1ccc(-c2c(OCc3ccccc3)ccc3c(=O)nc(N4CCOCC4)oc23)cc1 : 40
Nc1cccc(-c2c(OCc3ccccn3)ccc3c(=O)nc(N4CCOCC4)oc23)c1 : 7.3
O=c1nc(N2CCOCC2)oc2c(-c3ccc(Cl)cc3)c(OCCBr)ccc12 : 31
O=c1nc(N2CCOCC2)oc2c(-c3ccccc3)c(OCc3ccccc3)ccc12 : 13.6
O=c1nc(N2CCOCC2)oc2c(-c3cccs3)c(OCc3ccccc3)ccc12 : 46.1
O=c1nc(N2CCOCC2)oc2c(-c3cccnc3)c(OCc3ccccc3)ccc12 : 17.2
O=c1nc(N2CCOCC2)oc2c(-c3ccsc3)c(OCc3ccccn3)ccc12 : 39.7

(1) Nc1cccc(-c2c(OCc3ccccc3)ccc3c(=O)nc(N4CCOCC4)oc23)c1
(2) O=c1nc(N2CCOCC2)oc2c(-c3ccccc3)c(OCCBr)ccc12
(3) O=c1nc(N2CCOCC2)oc2c(-c3ccc(Cl)cc3)c(OCc3ccncc3)ccc12
input: Sort ascending by inhibition. Thanks in advance for listing the labels in the requested order.
output: 1, 3, 2

(I) O=c1nc(N2CCOCC2)oc2c(-c3ccsc3)c(OCc3ccncc3)ccc12
(II) O=c1nc(N2CCOCC2)oc2c(-c3ccccc3)c(OCc3ccncc3)ccc12
(III) O=c1nc(N2CCOCC2)oc2c(-c3cccc4c3sc3ccccc34)c(OCc3ccccc3)ccc12
input: Sort ascending by inhibition. Thanks in advance for listing the labels in the requested order.
output: II, I, III

====

biological target: Phosphatidylinositol 4,5-bisphosphate 3-kinase catalytic subunit alpha isoform (Homo sapiens) (UniProt P42336); assay: Inhibition of wild type PI3K-alpha (unknown origin) assessed as decrease in ATP consumption at 10 uM using phosphotidylinositol bisphosphate and ATP measured after 60 mins by Kinase-Glo reagent based luminescence assay
Sequence (P42336 whole entry, canonical isoform): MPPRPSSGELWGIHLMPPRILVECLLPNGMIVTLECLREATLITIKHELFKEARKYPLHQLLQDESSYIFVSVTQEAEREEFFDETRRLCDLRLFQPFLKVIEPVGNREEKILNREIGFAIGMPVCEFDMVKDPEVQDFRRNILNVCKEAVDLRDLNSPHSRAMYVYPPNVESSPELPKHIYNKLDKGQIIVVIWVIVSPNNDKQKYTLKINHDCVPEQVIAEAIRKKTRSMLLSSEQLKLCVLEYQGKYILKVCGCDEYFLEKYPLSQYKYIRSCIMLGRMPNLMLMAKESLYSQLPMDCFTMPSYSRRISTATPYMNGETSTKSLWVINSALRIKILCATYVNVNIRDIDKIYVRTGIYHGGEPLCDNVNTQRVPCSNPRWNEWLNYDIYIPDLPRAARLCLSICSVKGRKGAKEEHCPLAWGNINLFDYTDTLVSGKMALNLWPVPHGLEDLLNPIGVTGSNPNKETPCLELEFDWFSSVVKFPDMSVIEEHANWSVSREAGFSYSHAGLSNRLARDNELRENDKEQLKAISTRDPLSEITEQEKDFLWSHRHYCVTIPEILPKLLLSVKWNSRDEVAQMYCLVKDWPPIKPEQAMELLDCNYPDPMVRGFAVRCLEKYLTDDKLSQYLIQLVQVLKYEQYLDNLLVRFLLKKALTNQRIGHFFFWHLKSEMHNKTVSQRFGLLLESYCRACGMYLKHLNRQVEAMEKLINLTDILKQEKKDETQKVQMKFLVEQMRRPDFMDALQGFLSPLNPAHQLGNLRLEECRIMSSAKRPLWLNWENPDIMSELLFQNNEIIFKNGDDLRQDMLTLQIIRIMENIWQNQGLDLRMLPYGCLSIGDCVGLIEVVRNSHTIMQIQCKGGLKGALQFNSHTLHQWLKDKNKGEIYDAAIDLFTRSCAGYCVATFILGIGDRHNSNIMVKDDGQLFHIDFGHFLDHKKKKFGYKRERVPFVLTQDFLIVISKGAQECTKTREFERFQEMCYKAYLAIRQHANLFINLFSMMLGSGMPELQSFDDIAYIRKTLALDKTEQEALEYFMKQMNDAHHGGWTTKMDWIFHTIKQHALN
READOUT: inhibition (%)

O=c1nc(N2CCOCC2)oc2c(-c3cccs3)c(OCc3cccnc3)ccc12 : 3.3
O=c1nc(N2CCOCC2)oc2c(-c3ccccc3)c(OCc3ccccc3)ccc12 : 21.3
O=c1nc(N2CCOCC2)oc2c(-c3ccccc3)c(OCc3cccnc3)ccc12 : 57.9
O=c1nc(N2CCOCC2)oc2c(-c3ccc(Cl)cc3)c(OCCBr)ccc12 : -6.1

(A) O=c1nc(N2CCOCC2)oc2c(-c3ccc(Cl)cc3)c(OCc3cccnc3)ccc12
(B) O=c1nc(N2CCOCC2)oc2c(-c3cc4ccccc4s3)c(OCc3cccnc3)ccc12
(C) COc1ccc(-c2c(OCc3ccccc3)ccc3c(=O)nc(N4CCOCC4)oc23)cc1
input: Ordering criterion: inhibition; begin with the maximum. Thanks in advance for listing the labels in the requested order.
output: A, B, C

====

biological target: Phosphatidylinositol 4,5-bisphosphate 3-kinase catalytic subunit beta isoform (Homo sapiens); assay: Inhibition of wild type PI3K-beta (unknown origin) assessed as decrease in ATP consumption at 10 uM using phosphotidylinositol bisphosphate and ATP measured after 60 mins by Kinase-Glo reagent based luminescence assay
READOUT: inhibition (%)

Take a look at these entries with their results.
O=c1nc(N2CCOCC2)oc2c(-c3ccccc3)c(OCc3ccncc3)ccc12 : 68.1
Nc1cccc(-c2c(OCc3cccnc3)ccc3c(=O)nc(N4CCOCC4)oc23)c1 : 28.2

(1) COc1ccc(-c2c(OCCN3CCN(C)CC3)ccc3c(=O)nc(N4CCOCC4)oc23)cc1
(2) O=c1nc(N2CCOCC2)oc2c(-c3cccs3)c(OCc3ccncc3)ccc12
input: Of 1 and 2 , whose reported inhibition is numerically smaller? Answer by quoting the chosen item's label.
output: 2

(I) O=c1nc(N2CCOCC2)oc2c(-c3cccc4c3Sc3ccccc3S4)c(OCc3ccccc3)ccc12
(II) O=c1nc(N2CCOCC2)oc2c(-c3ccsc3)c(OCc3ccncc3)ccc12
(III) O=c1nc(N2CCOCC2)oc2c(-c3ccsc3)c(OCc3ccccn3)ccc12
input: Ordering criterion: inhibition; begin with the maximum. Thanks in advance for listing the labels in the requested order.
output: II, I, III
(II: 53.6%, I: 0.6%, III: -3%)

(P) O=c1nc(N2CCOCC2)oc2c(-c3cccc4c3sc3ccccc34)c(OCc3ccccc3)ccc12
(Q) COc1ccc(-c2c(OCc3ccccn3)ccc3c(=O)nc(N4CCOCC4)oc23)cc1
input: Of P and Q , whose reported inhibition is numerically smaller? Answer by quoting the chosen item's label.
output: P
(P: 15.1%, Q: 42.9%)
